- procedure summary: Pharmacokinetics following PO administration to dogs, Study A (oxycodone in plasma)
- experimental context: male, beagle, dog, plasma, po, 2 mg/kg
assay readout: AUC (ng·h/mL)
The response must be a number in ng·h/mL with no trailing unit.

Asked: Look up and state reported AUC for COc1ccc2c3c1O[C@H]1C(=O)CC[C@@]4(O)[C@@H](C2)N(C)CC[C@]314.Cl [Oxycodone, oxycodone HCl, reference compound]
Given back: 418

* * *

- target under test: trypsin (Bos taurus, UniProt P00760)
- Construct: purchased Sigma-Aldrich T8003; host or cells: bovine pancreas
- Sequence (P00760 24-246): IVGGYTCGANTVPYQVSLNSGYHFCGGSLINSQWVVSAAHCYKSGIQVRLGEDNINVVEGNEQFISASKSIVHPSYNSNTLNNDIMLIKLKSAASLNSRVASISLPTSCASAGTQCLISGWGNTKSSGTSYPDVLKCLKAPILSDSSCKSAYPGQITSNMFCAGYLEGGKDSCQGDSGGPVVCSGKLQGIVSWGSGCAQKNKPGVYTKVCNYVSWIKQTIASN
- procedure summary: In vitro trypsin-mediated prodrug cleavage
- Type: biochemical, bovine
- experimental context: bovine, trypsin from bovine pancreas; 0.761 mM KC-8•2HCl, Tris pH 8, 37° C.; footnote: adjusted to 4815 BAEE U/mL trypsin
assay readout: half-life at 0.761 mM (min)
Could you give me the number in min? Just the number is fine.

Asked: Tell me its half-life at 0.761 mM given COc1ccc2c3c1O[C@H]1C(OC(=O)N(C)CC(C)(C)CNC(=O)[C@H](CCCNC(=N)N)NC(=O)CNC(=O)CC(=O)O)=CC[C@@]4(O)[C@@H](C2)N(C)CC[C@]314 as the entry.
Given back: 11.3

These data points were gathered from patent US8962547B2.
